assay: Apparent volume of distribution in healthy human plasma at 800 mg, po administered as single dose measured after 120 hrs; type: ADME, organism-based
Readout label: Vd/F (L)
One number for each entry, in L.

Prompt: Report Vd/F, nothing else, for this molecule: CC[C@H]1OC(=O)[C@H](C)C(=O)[C@H](C)[C@@H](O[C@@H]2O[C@H](C)C[C@H](N(C)C)[C@H]2O)[C@@]2(C)C[C@@H](C)/C(=N\C(C)=O)[C@H](C)[C@@H](OC/C(=N\OCc3ccc(-n4cccn4)nc3)CO2)[C@]1(C)O [MODITHROMYCIN]
Response: 601

###

experiment: Elimination rate constant in healthy human plasma at 200 mg, po administered as single dose measured after 120 hrs; type: ADME, organism-based
Readout label: k el at 120 h

Prompt: Report k el at 120 h, nothing else, for this compound: CC[C@H]1OC(=O)[C@H](C)C(=O)[C@H](C)[C@@H](O[C@@H]2O[C@H](C)C[C@H](N(C)C)[C@H]2O)[C@@]2(C)C[C@@H](C)/C(=N\C(C)=O)[C@H](C)[C@@H](OC/C(=N\OCc3ccc(-n4cccn4)nc3)CO2)[C@]1(C)O [MODITHROMYCIN]
Response: 1.22e-05 s⁻¹
